Assign inhibition to each entry below.
- Test: growth inhibition, single agent or in combination, cell-based, chromothripsis tumors, cisplatin or BGB combos (AID 1671449);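 note: cells exposed for 96 hours; 0% = vehicle DMSO and 100% = killing by high DMSO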
- Test Context: LFS_MB_P medulloblastoma cells, at 0.5 µM, hits give high values
Calls of active or inactive are those of the source. Cut-off read from the data, not from the text of the source: active = inhibition above about 80%; inactive = the rest. Non-standard residues stand in square brackets, D forms with d. Residues, ends and D or L forms follow the SMILES beside them. Dolaproine = CO[C@@H]([C@@H]1CCCN1)[C@@H](C)C(=O)O; Dil = CC[C@H](C)[C@H](NC)[C@@H](CC(=O)O)OC; NMeV = CN[C@H](C(=O)O)C(C)C

So, COc1cccc2c1C(=O)c1c(O)c3c(c(O)c1C2=O)CC(O)(C(C)=O)CC3OC1CC(N)C(O)C(C)O1 (configuration not stated) ? Its inhibition was -31.5% (inactive)

The measured inhibition associated with `C[n+]1ccc(-c2c3nc(c(-c4cc[n+](C)cc4)c4ccc([nH]4)c(-c4cc[n+](C)cc4)c4nc(c(-c5cc[n+](C)cc5)c5ccc2[nH]5)C=C4)C=C3)cc1` reads -16.4% (inactive)

Form: compound = `CN(C)C(=S)NN=C(c1ccccn1)c1ccccn1` ; inhibition = 9.49% (inactive)

The compound listed as CC(C)OC(=O)[C@H](C)NP(=O)(OC[C@H]1O[C@@H](n2ccc(=O)[nH]c2=O)C(C)(F)[C@@H]1O)Oc1ccccc1 (some centres not stated) has a reported inhibition of -8.8% (inactive)

Consider CCC(C)C(=O)OC1CC(C)C=C2C=CC(C)C(CCC3CC(O)CC(=O)O3)C21 (configuration not stated) . Its measured inhibition is -40.1% (inactive)

Sample `Nc1ccccc1NC(=O)c1cnccn1` ; inhibition observed: -12.4% (inactive)

Value of inhibition reported for the compound `CO[C@H]1/C=C/O[C@@]2(C)Oc3c(C)c(O)c4c(O)c(c5c(c4c3C2=O)=NC2(CCN(CC(C)C)CC2)N=5)NC(=O)/C(C)=C\C=C\[C@H](C)[C@H](O)[C@@H](C)[C@@H](O)[C@@H](C)[C@H](OC(C)=O)[C@@H]1C` is 6.6% (inactive)

inhibition reported for this compound `O=C1C(=Cc2cccnc2)C(=O)c2ccccc21` : -18.2% (inactive)

According to the records, this compound `Cc1ccc([N+](=O)[O-])cc1S(=O)(=O)N(C)/N=C\c1cnc2ccc(Br)cn12` displays inhibition of 61.9% (inactive)

// field: inhibition; key: C=C1CCC(O)CC1=CC=C1CCCC2(C)C1CCC2C(C)C=CC(C)C(C)C (configuration not stated) ; value = -12.3% (inactive)

Entry C=CC1=C(C)C2=CC3=NC(=C(CC(=O)O)C4=NC(=C(C)C4=C(O)O)C=c4[nH]c(c(C)c4CC)=CC1=N2)C(CCC(=O)O)C3C (configuration not stated) — recorded inhibition = -22.2% (inactive)

Kindly note the recorded inhibition for `Cn1cnc2[nH]c(=O)[nH]c(=O)c21` , which is -31.2% (inactive)

inhibition reading for NC(=O)c1cccc2[nH]c(-c3ccc(C4CCCN4)cc3F)nc12 (configuration not stated) : 19.3% (inactive)

Lab note: CC[C@H](C)[C@@H]([C@@H](CC(=O)N1CCC[C@H]1[C@H](OC)[C@@H](C)C(=O)N[C@@H](Cc1ccccc1)C(=O)O)OC)N(C)C(=O)[C@@H](NC(=O)[C@@H](NC)C(C)C)C(C)C (H-[NMeV]V[Dil][Dolaproine]F-OH) gave inhibition of -34.4% (inactive)

Value of inhibition reported for the compound `Cc1cc(C)c(Nc2ccnc(Nc3ccc(C#N)cc3)n2)c(C)c1` is -1.98% (inactive)

Documented inhibition of CC1OC(n2cc(F)c(=O)[nH]c2=O)C(O)C1O (configuration not stated) : -9.42% (inactive)

Lookup result for O=C(CCSc1nc2ccccc2c(=O)[nH]1)NC1CCC(c2nnc(-c3ccccc3)o2)CC1 (configuration not stated) ; measured inhibition: -18.8% (inactive)

inhibition recorded for this compound, C=C(NC(=O)C(=C)NC(=O)c1csc(C2=NC3c4csc(n4)C4NC(=O)c5csc(n5)C(C(C)(O)C(C)O)NC(=O)C5CSC(=N5)/C(=C/C)NC(=O)C(C(C)O)NC(=O)c5csc(n5)C3(CC2)NC(=O)C(C)NC(=O)C(=C)NC(=O)C(C)NC(=O)C(C(C)CC)NC2C=Cc3c(C(C)O)cc(nc3C2O)C(=O)OC4C)n1)C(N)=O (configuration not stated) , is -22.9% (inactive)

Lab book: inhibition of N#Cc1ccc(OC2CCC(NC(=O)CCSc3nc4ccccc4c(=O)[nH]3)CC2)cc1 (configuration not stated) noted as -11.7% (inactive)

Record NC(=O)c1cccc2cn(-c3ccc(C4CCCNC4)cc3)nc12 (configuration not stated) , field inhibition: -22.2% (inactive)

Quick note, inhibition for CC(C)(O)[C@H]1CC[C@@](C)(C2[C@@H](O)C[C@@]3(C)[C@@H]4C[C@H](O)C5C(C)(C)[C@@H](O)CCC56CC46CC[C@]23C)O1 (some centres not stated) landed at -20.9% (inactive)

Record O=c1ccn(C2CC(O)C(CO)O2)c(=O)[nH]1 (configuration not stated) , field inhibition: -18.8% (inactive)

inhibition reading for `C[C@@H]1COCCN1c1cc(C2(S(C)(=O)=O)CC2)nc(-c2cccc3[nH]ccc23)n1` : -25.8% (inactive)

// CC(=O)C1(O)Cc2c(O)c3c(c(O)c2C(OC2CC(N)C(O)C(C)O2)C1)C(=O)c1ccccc1C3=O (configuration not stated) : inhibition value = -11.2% (inactive)

For this compound ( C#CCC(CCCCCC)C(=O)O (configuration not stated) ), measured inhibition is 5.69% (inactive)

// inhibition lookup, compound = CC(C=CC(=O)NO)=CC(C)C(=O)c1ccc(N(C)C)cc1 (configuration not stated) , result: 124% (active)

Documented inhibition of CCC(Sc1nnc2c3ccccc3n(CC)c2n1)C(=O)Nc1ccccc1OC (configuration not stated) : -17.9% (inactive)

Measured inhibition, `NC(=S)NN=Cc1ncccc1N` : -16.7% (inactive)

// inhibition lookup, compound = `Cc1cc(C=CC#N)cc(C)c1Nc1ccnc(Nc2ccc(C#N)cc2)n1` , result: -21.9% (inactive)

Sample `C[C@@H]1O[C@@H](O[C@@H]2[C@@H](O)[C@H](OCCc3ccc(O)c(O)c3)O[C@H](CO)[C@H]2OC(=O)C=Cc2ccc(O)c(O)c2)[C@H](O)[C@H](O)[C@H]1O` ; inhibition observed: -19.7% (inactive)

Summary for this compound, Cc1cn(C2C=CC(CO)O2)c(=O)[nH]c1=O (configuration not stated) : inhibition is -20.9% (inactive)

// field: inhibition; key: `O=C(CCCCCCC(=O)NO)NO` ; value = -16.3% (inactive)

These measurements were taken from PubChem BioAssay.
